- Test description: in vivo
- Experimental setup: male, BALB/c, mouse, ip, 5 mg/kg
Readout name: AUC(0-t) (ng·h/mL)
One number for each entry, in ng·h/mL.

Given item "COc1ccc2nc3cc(Cl)ccc3c(Nc3cc(CN4CCCC4)c(O)c(CN4CCCC4)c3)c2n1" , the value recorded as its AUC(0-t) is 192

----------
- Experimental system: CYP3A4 (Homo sapiens, UniProt P08684)
- Sequence (P08684 whole entry): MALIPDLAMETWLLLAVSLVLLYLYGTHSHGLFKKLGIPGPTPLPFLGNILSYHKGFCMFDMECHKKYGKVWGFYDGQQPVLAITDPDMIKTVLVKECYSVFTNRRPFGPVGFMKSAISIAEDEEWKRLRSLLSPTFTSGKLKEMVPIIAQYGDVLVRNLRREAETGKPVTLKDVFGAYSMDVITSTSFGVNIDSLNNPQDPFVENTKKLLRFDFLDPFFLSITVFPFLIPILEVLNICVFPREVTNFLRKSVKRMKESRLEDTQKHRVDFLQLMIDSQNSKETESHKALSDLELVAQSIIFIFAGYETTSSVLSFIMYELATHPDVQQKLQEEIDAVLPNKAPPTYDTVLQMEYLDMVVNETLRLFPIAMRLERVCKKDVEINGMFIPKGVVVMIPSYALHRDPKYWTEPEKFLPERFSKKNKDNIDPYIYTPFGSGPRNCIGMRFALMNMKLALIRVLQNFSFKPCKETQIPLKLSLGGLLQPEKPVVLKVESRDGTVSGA
Readout name: pIC50
Give bare numbers, as −log10 of the molar value.

Reported pIC50 of "COc1ccc2nc3cc(Cl)ccc3c(Nc3cc(CN4CCCC4)c(O)c(CN4CCCC4)c3)c2n1" : 4.37

----------
- Test description: in vivo
- Experimental setup: female, BALB/c, mouse, ip, 25 mg/kg
Readout name: Cmax
Number first, unit second.

Cmax reading for "COc1ccc2nc3cc(Cl)ccc3c(Nc3cc(CN4CCCC4)c(O)c(CN4CCCC4)c3)c2n1" : 160 ng/mL

----------
- Test description: physchem
- Experimental setup: 20 °C, pH 7.4, aqueous buffer, kinetic from dmso stock
Readout name: solubility

Please fill in: solubility reported for "COc1ccc2nc3cc(Cl)ccc3c(Nc3cc(CN4CCCC4)c(O)c(CN4CCCC4)c3)c2n1" = 168 µM

----------
- Test description: in vitro
- Experimental setup: guinea pig, microsomes
Readout name: microsomal CLint (µL/min/mg)
One number for each entry, in µL/min/mg.

// "COc1ccc2nc3cc(Cl)ccc3c(Nc3cc(CN4CCCC4)c(O)c(CN4CCCC4)c3)c2n1" : microsomal CLint value = 15.6

----------
- Test description: in vitro
- Experimental setup: mouse, microsomes
Readout name: half-life (h)
Numbers only, in h.

Entry under test: "COc1ccc2nc3cc(Cl)ccc3c(Nc3cc(CN4CCCC4)c(O)c(CN4CCCC4)c3)c2n1" . Its half-life was 2.88

----------
- System: HG23
Readout name: CC50

CC50 reported for this molecule C[C@@]1(O)[C@H](O)[C@@H](CO)O[C@H]1n1ccc(N)nc1=O [2’C-methyl cytidine] : > 300 µM

----------
- Test description: in vivo
- Experimental setup: male, BALB/c, mouse, ip, 75 mg/kg
Readout name: AUC(0-inf) (ng·h/mL)
One number for each entry, in ng·h/mL.

Form: compound = "COc1ccc2nc3cc(Cl)ccc3c(Nc3cc(CN4CCCC4)c(O)c(CN4CCCC4)c3)c2n1" ; AUC(0-inf) = 33900

----------
- Test description: in vitro
- Experimental setup: African green monkey, CC50
Readout name: CC50 (µM)
Numbers only, in µM.

CC50 measured on "COc1ccc2nc3cc(Cl)ccc3c(Nc3cc(CN4CCCC4)c(O)c(CN4CCCC4)c3)c2n1" = 3.2

----------
- Test description: in vivo
- Experimental setup: male, BALB/c, mouse, ip, 75 mg/kg
Readout name: AUC(0-t) (ng·h/mL)
Numbers only, in ng·h/mL.

Form field AUC(0-t), entry "COc1ccc2nc3cc(Cl)ccc3c(Nc3cc(CN4CCCC4)c(O)c(CN4CCCC4)c3)c2n1" : 33000

----------
- Test description: in vitro
- Experimental setup: human, Caco-2, pH 7.4
Readout name: Papp B→A (×10⁻⁶ cm/s)
Answers are plain numbers, in ×10⁻⁶ cm/s.

COc1ccc2nc3cc(Cl)ccc3c(Nc3cc(CN4CCCC4)c(O)c(CN4CCCC4)c3)c2n1 [Pyronaridine] has a reported Papp B→A of 4.8
